Hey, just so you know, these numbers are from paper PMC10050424.

target: PfENT1 mutant R291A (Plasmodium falciparum, UniProt Q8IDM6, R291A); construct: 10xHis (N); made in house; host or cells: Sf9 insect cells (baculovirus); test: ITC binding to PfENT1 mutant R291A; details: binding affinity (Kd), ITC; Fig. 3c, mutant R291A; mean ± SD (n = 3)
Sequence (Q8IDM6 whole entry R291A): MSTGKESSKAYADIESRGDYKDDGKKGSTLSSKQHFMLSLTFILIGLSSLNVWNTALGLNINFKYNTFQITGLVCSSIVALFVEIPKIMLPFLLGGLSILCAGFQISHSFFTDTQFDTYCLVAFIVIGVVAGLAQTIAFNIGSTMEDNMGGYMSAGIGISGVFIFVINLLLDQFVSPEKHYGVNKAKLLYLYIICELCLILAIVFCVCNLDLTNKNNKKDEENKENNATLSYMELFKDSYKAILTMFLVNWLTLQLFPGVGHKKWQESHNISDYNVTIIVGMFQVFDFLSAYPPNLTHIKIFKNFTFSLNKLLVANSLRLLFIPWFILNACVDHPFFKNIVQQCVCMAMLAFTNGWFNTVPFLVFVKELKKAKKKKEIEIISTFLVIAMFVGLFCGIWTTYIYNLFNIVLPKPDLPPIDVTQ
pKd: −log10 of the molar value.
MEASURED_METRIC: pKd

- OC[C@H]1O[C@@H](n2cnc3c(O)ncnc32)[C@H](O)[C@@H]1O: 4.33
